# Assayed target: Cav3.3 (Homo sapiens (Human))
# Sequence (Q9P0X4 whole entry, species assumed): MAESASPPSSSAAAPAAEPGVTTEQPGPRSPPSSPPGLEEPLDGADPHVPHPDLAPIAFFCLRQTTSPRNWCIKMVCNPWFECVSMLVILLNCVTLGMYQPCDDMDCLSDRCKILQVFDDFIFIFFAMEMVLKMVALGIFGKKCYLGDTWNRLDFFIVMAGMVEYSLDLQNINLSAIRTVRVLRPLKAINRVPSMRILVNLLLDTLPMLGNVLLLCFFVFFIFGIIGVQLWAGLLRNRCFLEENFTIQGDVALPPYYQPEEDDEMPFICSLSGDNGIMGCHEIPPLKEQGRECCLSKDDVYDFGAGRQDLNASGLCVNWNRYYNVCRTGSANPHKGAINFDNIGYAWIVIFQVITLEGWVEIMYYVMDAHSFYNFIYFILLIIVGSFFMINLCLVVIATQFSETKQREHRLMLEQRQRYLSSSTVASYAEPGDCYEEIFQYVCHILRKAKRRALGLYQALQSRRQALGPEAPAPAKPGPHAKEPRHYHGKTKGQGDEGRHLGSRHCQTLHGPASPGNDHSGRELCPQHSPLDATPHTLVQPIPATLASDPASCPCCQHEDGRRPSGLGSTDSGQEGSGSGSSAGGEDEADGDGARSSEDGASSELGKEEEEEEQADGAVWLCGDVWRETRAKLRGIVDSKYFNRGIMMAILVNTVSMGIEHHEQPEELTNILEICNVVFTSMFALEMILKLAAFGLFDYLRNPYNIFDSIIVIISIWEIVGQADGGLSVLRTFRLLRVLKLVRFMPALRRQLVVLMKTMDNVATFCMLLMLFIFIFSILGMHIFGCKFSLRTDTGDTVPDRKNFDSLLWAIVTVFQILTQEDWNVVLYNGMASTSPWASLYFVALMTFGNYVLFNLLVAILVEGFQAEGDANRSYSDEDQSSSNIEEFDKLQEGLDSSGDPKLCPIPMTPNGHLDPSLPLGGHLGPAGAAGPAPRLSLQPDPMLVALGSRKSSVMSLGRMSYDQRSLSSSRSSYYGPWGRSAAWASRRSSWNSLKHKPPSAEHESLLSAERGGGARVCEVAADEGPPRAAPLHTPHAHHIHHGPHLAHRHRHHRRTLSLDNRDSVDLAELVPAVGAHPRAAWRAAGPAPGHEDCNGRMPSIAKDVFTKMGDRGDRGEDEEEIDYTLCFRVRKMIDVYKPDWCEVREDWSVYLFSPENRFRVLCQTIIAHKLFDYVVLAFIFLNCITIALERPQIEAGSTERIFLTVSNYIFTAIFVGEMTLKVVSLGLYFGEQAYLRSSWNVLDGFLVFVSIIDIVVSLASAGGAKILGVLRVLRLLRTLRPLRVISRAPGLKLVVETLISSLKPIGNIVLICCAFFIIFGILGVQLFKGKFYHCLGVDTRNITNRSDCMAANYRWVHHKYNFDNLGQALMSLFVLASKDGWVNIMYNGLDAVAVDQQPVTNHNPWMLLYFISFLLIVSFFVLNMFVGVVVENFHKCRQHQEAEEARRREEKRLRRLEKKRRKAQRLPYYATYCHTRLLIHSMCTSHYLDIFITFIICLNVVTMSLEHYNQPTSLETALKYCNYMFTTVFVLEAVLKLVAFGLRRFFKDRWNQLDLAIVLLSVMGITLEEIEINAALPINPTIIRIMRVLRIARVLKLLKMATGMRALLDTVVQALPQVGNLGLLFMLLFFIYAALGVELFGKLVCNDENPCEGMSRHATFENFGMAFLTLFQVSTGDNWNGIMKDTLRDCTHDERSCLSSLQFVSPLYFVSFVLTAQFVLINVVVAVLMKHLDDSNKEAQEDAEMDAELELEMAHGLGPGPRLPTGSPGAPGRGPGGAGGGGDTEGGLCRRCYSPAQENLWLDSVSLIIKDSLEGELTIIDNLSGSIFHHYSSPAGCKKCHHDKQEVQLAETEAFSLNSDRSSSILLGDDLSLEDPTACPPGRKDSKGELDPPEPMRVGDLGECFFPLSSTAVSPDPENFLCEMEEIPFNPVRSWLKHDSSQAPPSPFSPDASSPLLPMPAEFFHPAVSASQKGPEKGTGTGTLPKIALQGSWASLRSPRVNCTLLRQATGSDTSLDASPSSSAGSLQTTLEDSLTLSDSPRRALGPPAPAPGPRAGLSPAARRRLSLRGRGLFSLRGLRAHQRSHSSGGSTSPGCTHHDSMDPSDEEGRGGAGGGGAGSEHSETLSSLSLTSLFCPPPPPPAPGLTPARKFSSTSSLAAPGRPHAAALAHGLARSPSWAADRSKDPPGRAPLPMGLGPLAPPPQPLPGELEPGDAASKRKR
# Assay procedure: Whole-cell voltage clamp recording, HEK293 cells expressing T-type channel Cav3.3
# Type: cell-based
# Condition info: holding potential −100 mV, depolarized to −30 mV for 100 ms, room temperature
Parameter measured: IC50 (nM)

Smiles text	Readout number
Cc1ccc(C)c2[nH]c(CCCN(C)CC[C@@]3(OC(=O)N4CCOCC4)CCc4cc(F)ccc4[C@@H]3C(C)C)nc12	212

* * *

# Assayed target: Cav3.1 (Homo sapiens (Human))
# Sequence (O43497 whole entry): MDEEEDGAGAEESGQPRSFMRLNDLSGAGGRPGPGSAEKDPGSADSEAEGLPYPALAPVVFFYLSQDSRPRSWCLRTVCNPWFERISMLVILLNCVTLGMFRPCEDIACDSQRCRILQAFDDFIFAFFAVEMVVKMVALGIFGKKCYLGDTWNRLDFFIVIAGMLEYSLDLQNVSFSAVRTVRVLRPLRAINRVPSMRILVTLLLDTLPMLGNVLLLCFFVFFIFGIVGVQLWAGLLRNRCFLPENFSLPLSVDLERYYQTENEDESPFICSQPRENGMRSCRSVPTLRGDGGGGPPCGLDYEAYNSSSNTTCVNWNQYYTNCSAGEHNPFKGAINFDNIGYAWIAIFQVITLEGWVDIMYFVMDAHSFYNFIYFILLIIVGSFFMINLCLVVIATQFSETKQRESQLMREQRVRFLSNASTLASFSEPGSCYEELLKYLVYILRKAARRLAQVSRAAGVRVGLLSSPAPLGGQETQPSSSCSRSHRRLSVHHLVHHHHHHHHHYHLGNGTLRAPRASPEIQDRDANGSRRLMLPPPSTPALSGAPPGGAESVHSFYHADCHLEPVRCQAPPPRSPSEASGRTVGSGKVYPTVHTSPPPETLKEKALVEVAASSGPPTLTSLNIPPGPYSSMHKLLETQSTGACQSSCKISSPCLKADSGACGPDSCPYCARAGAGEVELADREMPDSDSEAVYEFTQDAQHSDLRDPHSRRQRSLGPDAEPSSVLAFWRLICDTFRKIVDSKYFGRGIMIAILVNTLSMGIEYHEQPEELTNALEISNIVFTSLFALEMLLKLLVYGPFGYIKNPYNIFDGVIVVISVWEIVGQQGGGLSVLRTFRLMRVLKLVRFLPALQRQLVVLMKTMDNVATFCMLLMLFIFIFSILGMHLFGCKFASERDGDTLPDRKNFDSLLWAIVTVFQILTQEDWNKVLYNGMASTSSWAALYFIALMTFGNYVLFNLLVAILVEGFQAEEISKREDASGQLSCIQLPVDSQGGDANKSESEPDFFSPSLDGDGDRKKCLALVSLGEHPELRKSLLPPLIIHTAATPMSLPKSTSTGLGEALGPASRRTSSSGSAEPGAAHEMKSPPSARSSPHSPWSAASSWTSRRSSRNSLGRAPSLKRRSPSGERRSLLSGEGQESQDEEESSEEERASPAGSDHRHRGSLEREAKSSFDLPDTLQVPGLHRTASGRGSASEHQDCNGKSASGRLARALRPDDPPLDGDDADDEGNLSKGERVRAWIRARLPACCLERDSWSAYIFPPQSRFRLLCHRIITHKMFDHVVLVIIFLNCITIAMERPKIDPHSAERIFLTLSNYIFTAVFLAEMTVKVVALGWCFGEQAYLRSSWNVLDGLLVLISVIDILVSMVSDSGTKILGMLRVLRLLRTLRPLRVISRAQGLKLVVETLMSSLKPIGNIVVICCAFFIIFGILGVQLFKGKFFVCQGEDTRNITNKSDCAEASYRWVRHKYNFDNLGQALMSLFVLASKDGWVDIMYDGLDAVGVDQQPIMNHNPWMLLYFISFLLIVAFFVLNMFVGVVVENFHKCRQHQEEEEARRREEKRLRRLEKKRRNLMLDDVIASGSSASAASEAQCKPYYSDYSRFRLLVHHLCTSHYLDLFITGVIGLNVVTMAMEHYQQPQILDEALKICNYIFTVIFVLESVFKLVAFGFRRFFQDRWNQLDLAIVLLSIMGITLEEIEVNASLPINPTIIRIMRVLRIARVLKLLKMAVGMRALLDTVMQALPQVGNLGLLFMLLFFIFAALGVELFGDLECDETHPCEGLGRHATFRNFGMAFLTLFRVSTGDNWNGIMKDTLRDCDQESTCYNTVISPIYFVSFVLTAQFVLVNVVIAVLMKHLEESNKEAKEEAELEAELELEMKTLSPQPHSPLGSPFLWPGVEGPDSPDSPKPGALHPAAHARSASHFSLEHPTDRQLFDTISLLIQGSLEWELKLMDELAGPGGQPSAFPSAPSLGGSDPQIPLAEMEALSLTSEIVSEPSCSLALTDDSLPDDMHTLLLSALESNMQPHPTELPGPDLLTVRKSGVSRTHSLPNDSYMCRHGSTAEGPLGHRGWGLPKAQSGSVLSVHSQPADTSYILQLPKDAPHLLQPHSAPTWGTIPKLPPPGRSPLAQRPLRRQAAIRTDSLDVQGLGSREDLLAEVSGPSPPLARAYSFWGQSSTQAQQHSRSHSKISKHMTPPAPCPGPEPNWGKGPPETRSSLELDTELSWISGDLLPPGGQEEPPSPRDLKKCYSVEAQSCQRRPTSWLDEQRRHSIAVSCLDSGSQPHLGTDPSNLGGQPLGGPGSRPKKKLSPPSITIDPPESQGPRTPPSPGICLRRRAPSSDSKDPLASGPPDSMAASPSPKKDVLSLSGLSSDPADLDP
# Assay procedure: Whole-cell voltage clamp recording, HEK293 cells expressing T-type channel Cav3.1
# Format: cell-based
# Condition info: holding potential −100 mV, depolarized to −30 mV for 100 ms, room temperature
Parameter measured: IC50 (µM)

Smiles text	Assayed target	Unit text	Readout number
Cc1ccc(C)c2[nH]c(CCCN(C)CC[C@@]3(OC(=O)N4CCOCC4)CCc4cc(F)ccc4[C@@H]3C(C)C)nc12	Cav3.1 (Homo sapiens (Human))	µM	0.139
